Tested on: Mexican bean beetle
protocol-text: Initial insecticidal activity, Mexican bean beetle
Assay type: in vivo, Epilachna varivestis Mulsant
condition-description: Epilachna varivestis, 156 ppm, 48-hour exposure, read-out: % Kill, Mexican Bean Beetle
Listed below: mortality at 156 ppm values for each entry.
Value and unit, in that order.

CCN(SN(C)C(=O)Oc1cccc2c1OC(C)(C)C2)P(=O)(OC)OC
100%
CCCOP(=O)(OCCC)N(C)SN(C)C(=O)Oc1cccc2c1OC(C)(C)C2
100%
CCOP(=O)(OCC)N(CC)SN(C)C(=O)Oc1cccc2c1OC(C)(C)C2
100%
CCCN(SN(C)C(=O)Oc1cccc2c1OC(C)(C)C2)P(=O)(OCC)OCC
100%
CCCOP(=O)(OCCC)N(CCC)SN(C)C(=O)Oc1cccc2c1OC(C)(C)C2
100%
CCCN(SN(C)C(=O)Oc1cccc2c1OC(C)(C)C2)P(=O)(Oc1ccccc1)Oc1ccccc1
94%
CC(C)OP(=O)(OC(C)C)N(C)SN(C)C(=O)Oc1cccc2c1OC(C)(C)C2
94%
CCOP(=O)(OCC)N(CCc1ccccc1)SN(C)C(=O)Oc1cccc2c1OC(C)(C)C2
100%

Query block: What does the data say about its mortality at 156 ppm? Entry: `CCOP(=O)(OCC)N(C)SN(C)C(=O)Oc1cccc2c1OC(C)(C)C2`
Result block: 100%

###

System: confused flour beetle
protocol-text: Seven-day residual insecticidal activity, confused flour beetle
Assay type: in vivo, Tribolium confusum Jacquelin duVal
condition-description: Tribolium confusum, 39 ppm, 48-hour exposure, read-out: % Kill, Confused Flour Beetle
observable: mortality at 39 ppm (%)
Lab book: enter the figure in %, no units written.

Query block: Quick check: mortality at 39 ppm of `CCCOP(=O)(OCCC)N(CCC)SN(C)C(=O)Oc1cccc2c1OC(C)(C)C2` ?
Result block: 0

Query block: What do you get for `CC(C)OP(=O)(OC(C)C)N(C)SN(C)C(=O)Oc1cccc2c1OC(C)(C)C2` ?
Result block: 0

Query block: Now consider `CCOP(=O)(OCC)N(CC)SN(C)C(=O)Oc1cccc2c1OC(C)(C)C2` and answer again.
Result block: 0

Query block: Another compound to look at: `CCOP(=O)(OCC)N(C)SN(C)C(=O)Oc1cccc2c1OC(C)(C)C2`
Result block: 10

Query block: Then this compound: `CCOP(=O)(OCC)N(CCc1ccccc1)SN(C)C(=O)Oc1cccc2c1OC(C)(C)C2`
Result block: 0

Query block: Further, for `CCCOP(=O)(OCCC)N(C)SN(C)C(=O)Oc1cccc2c1OC(C)(C)C2` ?
Result block: 0

Query block: Repeat with `CCCN(SN(C)C(=O)Oc1cccc2c1OC(C)(C)C2)P(=O)(Oc1ccccc1)Oc1ccccc1`
Result block: 0

Query block: Now try `CCCN(SN(C)C(=O)Oc1cccc2c1OC(C)(C)C2)P(=O)(OCC)OCC` .
Result block: 0

Query block: Similarly, `CCN(SN(C)C(=O)Oc1cccc2c1OC(C)(C)C2)P(=O)(OC)OC` ?
Result block: 0

###

protocol-text: Mammalian toxicity, 14-day LD50 in rats
condition-description: rat, in vivo, Wistar derived albino rats, method of Miller and Tainter
observable: LD50 at 336 h
Numeric answer plus unit only.

Query block: Looking for the measured LD50 at 336 h of CNC(=O)Oc1cccc2c1OC(C)(C)C2 [carbofuran, reference compound] , can you help?
Result block: 12.2 mg/kg

Query block: Next up: `CCCOP(=O)(OCCC)N(C)SN(C)C(=O)Oc1cccc2c1OC(C)(C)C2`
Result block: 152 mg/kg

Query block: Next compound: `CCOP(=O)(OCC)N(C)SN(C)C(=O)Oc1cccc2c1OC(C)(C)C2`
Result block: 146 mg/kg

###

Test system: plum curculio
protocol-text: Seven-day residual insecticidal activity, plum curculio
Format: in vivo, Conotrachelus nenuphar (Herbst)
condition-description: Conotrachelus nenuphar, 39 ppm, 48-hour exposure, read-out: % Kill, Plum Curculio
Each item that follows carries a reported mortality at 39 ppm.
Number only, in %; omit the unit.

Example results:
CCOP(=O)(OCC)N(CC)SN(C)C(=O)Oc1cccc2c1OC(C)(C)C2
0
CCN(SN(C)C(=O)Oc1cccc2c1OC(C)(C)C2)P(=O)(OC)OC
0
CCCOP(=O)(OCCC)N(CCC)SN(C)C(=O)Oc1cccc2c1OC(C)(C)C2
5
CCCOP(=O)(OCCC)N(C)SN(C)C(=O)Oc1cccc2c1OC(C)(C)C2
0
CCOP(=O)(OCC)N(C)SN(C)C(=O)Oc1cccc2c1OC(C)(C)C2
0

Query block: Name the recorded mortality at 39 ppm for `CCOP(=O)(OCC)N(CCc1ccccc1)SN(C)C(=O)Oc1cccc2c1OC(C)(C)C2` .
Result block: 0

Query block: # iterate: `CCCN(SN(C)C(=O)Oc1cccc2c1OC(C)(C)C2)P(=O)(Oc1ccccc1)Oc1ccccc1`
Result block: 5

Query block: // next record `CCCN(SN(C)C(=O)Oc1cccc2c1OC(C)(C)C2)P(=O)(OCC)OCC`
Result block: 0

Query block: Quick one: `CC(C)OP(=O)(OC(C)C)N(C)SN(C)C(=O)Oc1cccc2c1OC(C)(C)C2`
Result block: 0

###

System: twospotted spider mite
protocol-text: Ovicidal activity against the twospotted spider mite
Assay type: in vivo, Tetranychus urticae Koch
condition-description: Tetranychus urticae; eggs; 1250 ppm; 7 to 10 days; read-out: % Kill (ovicidal)
Procedure: d. Ovicidal Activity Against the Twospotted Spider Mite In this test, Pinto bean seedlings are infested with female twospotted spider mites; about 3-4 hours are allowed for egg deposition. Plants are then dipped in TEPP (tetraethylpyrophosphate-commercial emulsifiable concentrate (EC)) solution containing 936 ppm of active ingredient. […] Termination of exposure is determined by the time required to attain complete hatch in the untreated check.
Class 1 (yes): mortality at 1250 ppm at least 70%. Class 0 (no): mortality at 1250 ppm below 70%.

Please review the entries below; each comes with its answer.
CC(C)OP(=O)(OC(C)C)N(C)SN(C)C(=O)Oc1cccc2c1OC(C)(C)C2
1 (yes)
CCCN(SN(C)C(=O)Oc1cccc2c1OC(C)(C)C2)P(=O)(OCC)OCC
0 (no)
CCOP(=O)(OCC)N(CCc1ccccc1)SN(C)C(=O)Oc1cccc2c1OC(C)(C)C2
1 (yes)
CCOP(=O)(OCC)N(CC)SN(C)C(=O)Oc1cccc2c1OC(C)(C)C2
0 (no)
CCN(SN(C)C(=O)Oc1cccc2c1OC(C)(C)C2)P(=O)(OC)OC
0 (no)
CCCN(SN(C)C(=O)Oc1cccc2c1OC(C)(C)C2)P(=O)(Oc1ccccc1)Oc1ccccc1
0 (no)

Query block: Check if mortality at 1250 ppm >= 70% (inclusive). Item: `CCCOP(=O)(OCCC)N(C)SN(C)C(=O)Oc1cccc2c1OC(C)(C)C2`
Result block: 1 (yes)

###

Entries and their mortality at 1250 ppm
Test system: pea aphid
protocol-text: Initial insecticidal activity, pea aphid
Format: in vivo, Acyrthosiphon pisum (Harris)
condition-description: Acyrthosiphon pisum, 1250 ppm, 48-hour exposure, read-out: % Kill, Pea Aphid
// note: answer is a bare numeric in %

CCN(SN(C)C(=O)Oc1cccc2c1OC(C)(C)C2)P(=O)(OC)OC
100

Query block: Item `CCCN(SN(C)C(=O)Oc1cccc2c1OC(C)(C)C2)P(=O)(Oc1ccccc1)Oc1ccccc1` has what recorded mortality at 1250 ppm?
Result block: 0

Query block: Item: `CCOP(=O)(OCC)N(CC)SN(C)C(=O)Oc1cccc2c1OC(C)(C)C2`
Result block: 100

Query block: # repeat for `CCOP(=O)(OCC)N(CCc1ccccc1)SN(C)C(=O)Oc1cccc2c1OC(C)(C)C2`
Result block: 100

###

System: plum curculio
protocol-text: Initial insecticidal activity, plum curculio
Type: in vivo, Conotrachelus nenuphar (Herbst)
condition-description: Conotrachelus nenuphar, 39 ppm, 48-hour exposure, read-out: % Kill, Plum Curculio
Some molecules, each annotated with its measured mortality at 39 ppm.
Please state the figure in %; there is no need to write the unit.

Query block: What mortality at 39 ppm value was documented for this molecule, CCCN(SN(C)C(=O)Oc1cccc2c1OC(C)(C)C2)P(=O)(OCC)OCC [4(c)] ?
Result block: 0

Query block: Here is the next molecule: CC(C)OP(=O)(OC(C)C)N(C)SN(C)C(=O)Oc1cccc2c1OC(C)(C)C2 [6(c)]
Result block: 0

Query block: Now this one: CCOP(=O)(OCC)N(CCc1ccccc1)SN(C)C(=O)Oc1cccc2c1OC(C)(C)C2 [9(c)]
Result block: 0

Query block: # iterate: CCCOP(=O)(OCCC)N(C)SN(C)C(=O)Oc1cccc2c1OC(C)(C)C2 [2(d)]
Result block: 0

Query block: Try this molecule next: CCN(SN(C)C(=O)Oc1cccc2c1OC(C)(C)C2)P(=O)(OC)OC [5(c)]
Result block: 50

###

Test system: plum curculio
protocol-text: Initial insecticidal activity, plum curculio
Type: in vivo, Conotrachelus nenuphar (Herbst)
condition-description: Conotrachelus nenuphar, 39 ppm, 48-hour exposure, read-out: % Kill, Plum Curculio
Quick reference: mortality at 39 ppm of the listed items.
Be sure to follow the number with its unit.

CCCN(SN(C)C(=O)Oc1cccc2c1OC(C)(C)C2)P(=O)(Oc1ccccc1)Oc1ccccc1 [7(c)]
20%

Query block: Field request: mortality at 39 ppm | item: CCOP(=O)(OCC)N(CC)SN(C)C(=O)Oc1cccc2c1OC(C)(C)C2 [8(c)]
Result block: 0%

Query block: Cool, now CCOP(=O)(OCC)N(C)SN(C)C(=O)Oc1cccc2c1OC(C)(C)C2 [Example 1(c)]
Result block: 0%
